Every entry's value here was drawn from patent US10533015B1.

Could you please report measured % remaining at time point for the items listed next?
# protocol: Plasma stability assay, rat plasma
# Type: in vitro ADME
# condition_info: 10 μM, 37° C., 120 min
One number for each entry, in %.

# example entries with known answers
CCCCCCCCCCCCCCCCOC(=O)Oc1ccc2c3c1O[C@H]1C(=O)CC[C@@]4(O)C(C2)N(CC2CC2)CC[C@]314 [Compound 21] : 68.3
CCCCCCCCCCCCCCCCCC(=O)Oc1ccc2c3c1O[C@H]1C(=O)CC[C@@]4(O)C(C2)N(CC2CC2)CC[C@]314 [Compound 54] : 62.4
C=C1CC[C@@]2(O)C3Cc4ccc(OC(=O)CCCCCCC/C=C\CCCCCCCC)c5c4[C@@]2(CCN3CC2CC2)[C@H]1O5 [Compound 36] : 66.3
CCCCCCCCCCCCOC(=O)Oc1ccc2c3c1O[C@H]1C(=O)CC[C@@]4(O)C(C2)N(CC2CC2)CC[C@]314 [Compound 11] : 0.3

Kindly give each listed record's % remaining at time point.
1. CCCCC/C=C\C/C=C\CCCCCCCC(=O)Oc1ccc2c3c1O[C@H]1C(=O)CC[C@@]4(O)C(C2)N(CC2CC2)CC[C@]314 [Compound 53]
2. C=C1CC[C@@]2(O)C3Cc4ccc(OC(=O)OCCCCCCCC)c5c4[C@@]2(CCN3CC2CC2)[C@H]1O5 [Compound 17]

Marked response:
[19.6, 0]

* * *

# protocol: Plasma stability assay, rat plasma
# Format: in vitro ADME
# condition_info: 10 μM, 37° C., 15 min
# Procedure: Plasma stability determination of the test compounds in rat, dog, cynomolgus monkey and human plasma is performed using HPLC-MS. […] Five time points are analyzed (0, 15, 120, 480 and 1440 min). For dog, monkey and human, test compounds (2 μM, final solvent concentration 1%) were also incubated at 37° C. and analyzed at five time points (0, 10, 30, 60 and 120 min). […] The samples are analyzed by HPLC-MS. The percentage of parent compound remaining after incubation in plasma is determined.
parameter: % remaining at time point (%)
Numbers only, in %.

C=C1CC[C@@]2(O)C3Cc4ccc(OC(=O)OCCCCCCCCCCCCCC)c5c4[C@@]2(CCN3CC2CC2)[C@H]1O5 : 123.2
C=C1CC[C@@]2(O)C3Cc4ccc(OC(=O)CCCCCCC/C=C\CCCCCCCC)c5c4[C@@]2(CCN3CC2CC2)[C@H]1O5 : 74.4
C=C1CC[C@@]2(O)C3Cc4ccc(OC(=O)OCCCCCCCC)c5c4[C@@]2(CCN3CC2CC2)[C@H]1O5 : 0
C=C1CC[C@@]2(O)C3Cc4ccc(OC(=O)OCCCCCCCCCCCCC)c5c4[C@@]2(CCN3CC2CC2)[C@H]1O5 : 65.7
CCCCCCCCCCCCOC(=O)Oc1ccc2c3c1O[C@H]1C(=O)CC[C@@]4(O)C(C2)N(CC2CC2)CC[C@]314 : 0.7

Kindly give each listed record's % remaining at time point.
1. C=C1CC[C@@]2(O)C3Cc4ccc(OC(=O)CCCCCCC/C=C/CCCCCCCC)c5c4[C@@]2(CCN3CC2CC2)[C@H]1O5
2. C=C1CC[C@@]2(O)C3Cc4ccc(OC(=O)OCCCCCCCCCCCC)c5c4[C@@]2(CCN3CC2CC2)[C@H]1O5
3. CCCCCCCCCCCCCCCCOC(=O)Oc1ccc2c3c1O[C@H]1C(=O)CC[C@@]4(O)C(C2)N(CC2CC2)CC[C@]314
4. C=C1CC[C@@]2(O)C3Cc4ccc(OC(=O)CCCCCCCCCCCCCCCCCCCCC)c5c4[C@@]2(CCN3CC2CC2)[C@H]1O5
5. CCCCCCCCCCCCCCCCCCCCCC(=O)Oc1ccc2c3c1O[C@H]1C(=O)CC[C@@]4(O)C(C2)N(CC2CC2)CC[C@]314
6. C=C1CC[C@@]2(O)C3Cc4ccc(OC(=O)CCCCCCCCCCC)c5c4[C@@]2(CCN3CC2CC2)[C@H]1O5 [Compound 59, reference compound]

Marked response:
1. 72
2. 31.3
3. 73.5
4. 94
5. 107.4
6. 5.9

Kindly give each listed record's % remaining at time point.
1. C=C1CC[C@@]2(O)C3Cc4ccc(OCOC(=O)OCCCCCCCCCCCC)c5c4[C@@]2(CCN3CC2CC2)[C@H]1O5
2. C=C1CC[C@@]2(O)C3Cc4ccc(OCOC(=O)OCCCCCCCCCCCCCC)c5c4[C@@]2(CCN3CC2CC2)[C@H]1O5
3. CCCCCCCCCCCCCCCCCC(=O)Oc1ccc2c3c1O[C@H]1C(=O)CC[C@@]4(O)C(C2)N(CC2CC2)CC[C@]314
4. CCCCC/C=C\C/C=C\CCCCCCCC(=O)Oc1ccc2c3c1O[C@H]1C(=O)CC[C@@]4(O)C(C2)N(CC2CC2)CC[C@]314

Marked response:
32
82.6
98.8
46.85
